- targetOfAssay: T1, human MSLN-R3-his protein (human, UniProt Q13421 487-598)
- T1 construct: Region 3 of human mesothelin, made in HEK293E cells, His-tagged; also called human MSLN-R3 protein; hMSLN-R3-his; not shown: His tag
- T1 sequence (Q13421 495-606): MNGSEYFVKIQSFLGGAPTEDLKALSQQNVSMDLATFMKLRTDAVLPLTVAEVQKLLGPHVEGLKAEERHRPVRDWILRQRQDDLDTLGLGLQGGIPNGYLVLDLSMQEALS
- assayText: ELISA on coated MSLN-R3; antibody 0.1 nM
propertyName: OD450 (OD450)
# value in OD450; strip the unit string

Example results:
binder: S009-F8-32.3 (antibody, human IgG1, kappa, V domains shown) VH: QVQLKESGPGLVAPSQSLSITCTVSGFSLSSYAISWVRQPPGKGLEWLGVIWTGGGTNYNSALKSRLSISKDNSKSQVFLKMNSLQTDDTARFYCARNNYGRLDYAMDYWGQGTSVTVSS VL: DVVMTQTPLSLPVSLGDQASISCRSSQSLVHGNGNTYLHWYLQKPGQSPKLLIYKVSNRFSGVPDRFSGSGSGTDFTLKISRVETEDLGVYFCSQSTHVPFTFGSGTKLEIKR
endpointResult: 0.04

binder: S009-F8-28.23 (antibody, human IgG1, kappa, V domains shown) VH: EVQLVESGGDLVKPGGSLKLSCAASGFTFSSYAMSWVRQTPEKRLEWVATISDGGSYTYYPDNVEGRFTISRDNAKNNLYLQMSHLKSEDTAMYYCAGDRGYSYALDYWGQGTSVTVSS VL: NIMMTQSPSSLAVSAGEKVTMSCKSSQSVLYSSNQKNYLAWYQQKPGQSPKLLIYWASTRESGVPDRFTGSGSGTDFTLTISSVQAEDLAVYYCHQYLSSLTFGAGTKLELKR
endpointResult: 0.04

Please turn your attention to the following entry.
Ask | Provide measured OD450 value, entry: S009-F8-27.1 (antibody, human IgG1, kappa, V domains shown) VH: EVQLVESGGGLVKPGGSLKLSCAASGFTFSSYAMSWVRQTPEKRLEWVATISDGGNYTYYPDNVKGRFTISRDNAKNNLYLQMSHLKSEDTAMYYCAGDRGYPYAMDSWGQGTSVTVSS VL: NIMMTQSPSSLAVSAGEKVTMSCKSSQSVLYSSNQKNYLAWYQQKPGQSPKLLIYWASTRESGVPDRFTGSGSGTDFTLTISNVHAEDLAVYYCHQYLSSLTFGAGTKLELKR
Reply | 0.07
